Just for reference, PubChem BioAssay is where these values come from.

The compounds listed here are annotated with their viability.
measurement.protocol: drug combination growth inhibition, ovarian cancer – cell-based, oncology-focused library, rucaparib conditional, profiling panel (AID 1508598)
experimental.parameters: patient-derived ovarian cancer cells, CellTiter-Glo viability, 144 h; at 0.0195 µM; OCI-P5x cells; without rucaparib; active compounds read low
Report only the number, with the unit % understood.

Below are worked cases with known answers.
molecular.string: O=C(/C=C/c1cccc(S(=O)(=O)Nc2ccccc2)c1)NO
viability / %: 88.4
--
molecular.string: Cn1cc(-c2ccc3nnc(Sc4ccc5ncccc5c4)n3n2)cn1
viability / %: 103
--
molecular.string: NC(=O)c1ccc(I)c([N+](=O)[O-])c1
viability / %: 95.1
--
molecular.string: C=CC(=O)Nc1cccc(Oc2nc(Nc3ccc(N4CCN(C)CC4)cc3OC)ncc2Cl)c1
viability / %: 118

Now consider a different compound.
viability in this record for CN1CCN(c2ccc(OC(F)(F)F)c(Nc3ncc4c(n3)-c3c(c(C(N)=O)nn3CCO)CC4)c2)CC1 : 20.2
